system: Plasmodium falciparum; assay: GSK_TCMDC: Inhibition of Plasmodium falciparum Dd2 in whole red blood cells, using parasite LDH activity as an index of growth. Test compounds present at 2uM; type: functional
Each record here notes measured Inhibition.
PARAMETER_MEASURED: Inhibition (%)

{"COMPOUND": "CCCCN(CCCC)CCOc1cc2c(cc1OC)CCN2C(=O)/C=C/c1ccccc1Cl.Cl", "NUMERIC_VALUE": 31}
{"COMPOUND": "Cc1ccc(C(=O)Nc2cc(C(F)(F)F)cc(C(F)(F)F)c2)cc1[N+](=O)[O-]", "NUMERIC_VALUE": 61}
{"COMPOUND": "CCc1ccc(NC(=O)C=NNC(=N)N)cc1.O=S(=O)(O)O", "NUMERIC_VALUE": 3}
{"COMPOUND": "Cc1ccccc1C1CCN(C2CCC(NC(=O)c3ccc(-c4ccccc4)s3)CC2)CC1 (stereo not given)", "NUMERIC_VALUE": 84}
{"COMPOUND": "Cl.O=C1CSc2ccc(CNC3CCN(CCc4c(Cl)cnc5ccc(F)cc45)CC3)nc2N1", "NUMERIC_VALUE": 52}
